Reference for the values: PubChem BioAssay (NCI)

Please respond with reported TGI for every item in the list.
Test system: HCC-2998 colon
Experiment: NCI tumour cell line growth inhibition, 48 h

With HCC-2998 colon as the test system, "CNC(=O)c1nn(C)c2c1C(C)(C)Cc1cnc(Nc3ccc(N4CCN(C)CC4)cc3)nc1-2" showed TGI of > 10 µM

With HCC-2998 colon as the test system, C[N+](C)(C)CC1CCCCC1O (configuration not stated) showed TGI of > 100 µM

With HCC-2998 colon as the test system, Cc1c2c(OCC3CCCCO3)nn(C)c(=O)c2c(C)n1-c1ccccc1 (configuration not stated) showed TGI of 29.4 µM

With HCC-2998 colon as the test system, CC1(C)[C@H]2CC[C@@]13C(=O)N1C(=O)O[C@@H]([C@H]1Cl)C(Cl)(COCc1ccccc1)C(=O)OCCO[C@H]3C2 (some centres not stated) showed TGI of > 100 µM

With HCC-2998 colon as the test system, C/C(=N/NC(=O)C[N+](C)(C)C)C(CN(C)C)C(=O)Nc1ccccc1 (configuration not stated) showed TGI of > 100 µM

With HCC-2998 colon as the test system, "CN(C)C(=O)O[C@H]1CN[C@H](C#Cc2cc3ncnc(Nc4ccc(OCc5cccc(F)c5)c(Cl)c4)c3s2)C1" showed TGI of > 25 µM

With HCC-2998 colon as the test system, "Nc1ccc(/C=C/C(=O)NCc2cc3cc(-c4ccc(C(=O)N5CCC(F)(F)CC5)cc4)cc(-c4ccc(F)cc4)c3o2)cn1" showed TGI of > 100 µM

With HCC-2998 colon as the test system, "O=[N+]([O-])c1ccc(-c2ccc(-c3csc(Nc4ccccc4)n3)o2)cc1" showed TGI of 56.5 µM

With HCC-2998 colon as the test system, COc1ccc(/C(=N\NC(=S)NN)C(c2ccc(OC)cc2)C2C(=O)Oc3ccccc32)cc1 (configuration not stated) showed TGI of > 100 µM

With HCC-2998 colon as the test system, "CC(C)(C)c1cc(C(=O)/C=C/c2ccc3c(c2)OCO3)cc(C(C)(C)C)c1O" showed TGI of 3.74 µM

With HCC-2998 colon as the test system, "C1=C\SS/C=C\SS/1" showed TGI of > 100 µM

With HCC-2998 colon as the test system, "O=c1c(F)cn(Cc2ccccc2CCl)c(=O)n1Cc1ccccc1CCl" showed TGI of 4.47 µM

With HCC-2998 colon as the test system, "CCON1CC(C(=O)OC)=C(O)C1=O" showed TGI of > 100 µM

With HCC-2998 colon as the test system, "CC(C)(Oc1ccc(/C=C/C(=O)c2ccc(Cl)cc2)cc1)C(=O)Nc1c(Cl)cccc1Cl" showed TGI of 51.5 µM

With HCC-2998 colon as the test system, CC(C(=O)O)C(C)(O)C(=O)O (configuration not stated) showed TGI of > 100 µM

With HCC-2998 colon as the test system, "O=c1oc2ccccc2[n+]([O-])c1-c1ccccc1" showed TGI of > 100 µM

With HCC-2998 colon as the test system, "C(=N\Nc1nnn(Cc2ccccc2)n1)/c1ccccc1" showed TGI of > 100 µM

With HCC-2998 colon as the test system, "COC(=O)C1(C(=O)OC)CC(=O)c2cc3c(cc2-c2c(cc(OC)c(OC)c2OC)C1)OCO3" showed TGI of > 211 µM

With HCC-2998 colon as the test system, "COc1cc2c(cc1Cc1c(F)cccc1Cl)nc(-c1c(F)cccc1Cl)n2Cc1c(F)cccc1Cl" showed TGI of 76.7 µM

With HCC-2998 colon as the test system, "COc1cc(NCCCCCCCNC(C)C)c2nccc(C)c2c1" showed TGI of 19 µM

With HCC-2998 colon as the test system, "Cc1ccc(/C=C2\Cc3c(C)cc(C)cc3C2=O)c(C(=O)O)c1" showed TGI of 98.6 µM

With HCC-2998 colon as the test system, "Oc1[nH]c2ccccc2c1N=NC(=S)Nc1ccc(Cl)cc1" showed TGI of > 100 µM
